Molecular target: Tubulin (Sus scrofa, UniProt P02554+P02550)
Test: Inhibition of pig brain tubulin polymerization by spectrophotometry
# IC50 annotations

Solved cases below.
CCn1ccc2cc(-c3cnc(N)nc3-c3cc(OC)c(OC)cc3O)ccc21 | > 50 µM
Nc1ncc(-c2ccc(N3CCCCC3)cc2)c(-c2ccccc2O)n1 | > 50 µM
CN1CCN(Cc2ccc(-c3cnc(N)nc3-c3ccccc3O)cc2)CC1 | > 50 µM
Nc1ncc(-c2ccc3[nH]ccc3c2)c(-c2ccccc2O)n1 | > 50 µM
CN(C)Cc1ccc(-c2cnc(N)nc2-c2ccccc2O)cc1 | > 50 µM

Now consider the entry below.
Task: Can you share its IC50? I mean this molecule: `CC(C)n1ccc2cc(-c3cnc(N)nc3-c3ccccc3O)ccc21`
Result: 5 µM

---

Biological target: Tubulin (Sus scrofa, UniProt P02554+P02550)
Experiment: Inhibition of pig brain tubulin polymerization by spectrophotometry
READOUT NAME: IC50

Solved cases below.
CCn1ccc2cc(-c3cnc(N)nc3-c3cc(F)ccc3O)ccc21 | 0.8 µM
Cn1ccc2cc(-c3cnc(N)nc3-c3ccccc3O)ccc21 | 0.92 µM
Nc1ncc(-c2ccc(CN3CCOCC3)cc2)c(-c2ccccc2O)n1 | > 50 µM
Nc1ncc(-c2ccc(N3CCCC3)cc2)c(-c2ccccc2O)n1 | > 50 µM

Task: Can you share its IC50? I mean this molecule: `CCn1ccc2cc(-c3cnc(N)nc3-c3ccccc3O)cnc21`
Result: > 50 µM

Task: Can you share its IC50? I mean this molecule: `Nc1ncc(-c2ccc(N3CCOCC3)cc2)c(-c2ccccc2O)n1`
Result: > 50 µM

---

System: A549
Experiment: Antiproliferative activity against human A549 cells after 72 hrs by sulforhodamine B assay
Assay type: functional, cell-based
Details: A549, 72 h
Lab note: cut-off is 70 nM. Strictly less in IC50 is 1. Exactly 70 nM or more is -1.

Some solved cases for reference:
CCn1ccc2cc(-c3cnc(N)nc3-c3ccccc3O)ccc21 | 1
CCN(CC)c1ccc(-c2cnc(N)nc2-c2ccccc2O)cc1 | -1
CC(C)n1ccc2cc(-c3cnc(N)nc3-c3ccccc3O)ccc21 | -1
COc1cc2c(c(OC)c1OC)-c1ccc(OC)c(=O)cc1[C@@H](NC(C)=O)CC2 [COLCHICINE] | 1

Task: IC50 strictly < 70 nM for this compound? CCC1=C[C@@H]2CN(C1)Cc1c([nH]c3ccccc13)[C@@](C(=O)OC)(c1cc3c(cc1OC)N(C)[C@H]1[C@@](O)(C(=O)OC)[C@H](OC(C)=O)[C@]4(CC)C=CCN5CC[C@]31[C@@H]54)C2 [VINORELBINE]
Result: 1

Task: IC50 strictly < 70 nM for this compound? `Cn1ccc2cc(-c3cnc(N)nc3-c3ccccc3O)ccc21`
Result: 1

---

# pIC50 annotations
Test system: HT-29
Assay: Antiproliferative activity against human HT-29 cells after 72 hrs by sulforhodamine B assay
Type: functional, cell-based
Conditions: HT-29, 72 h
API: returns pIC50 as number; meaning -log10 of concentration in mol/L.

Solved cases below.
CC(C)n1ccc2cc(-c3cnc(N)nc3-c3ccccc3O)ccc21 | 6.04
CC(=O)O[C@H]1C(=O)[C@@]2(C)[C@H]([C@H](OC(=O)c3ccccc3)[C@]3(O)C[C@H](OC(=O)[C@H](O)[C@@H](NC(=O)c4ccccc4)c4ccccc4)C(C)=C1C3(C)C)[C@]1(OC(C)=O)CO[C@@H]1C[C@@H]2O | 8.21
CCn1ccc2cc(-c3cnc(N)nc3-c3ccccc3O)ccc21 | 7.55
COc1cc2c(c(OC)c1OC)-c1ccc(OC)c(=O)cc1[C@@H](NC(C)=O)CC2 | 7.66
Cn1ccc2cc(-c3cnc(N)nc3-c3ccccc3O)ccc21 | 7.51
CCn1ccc2cc(-c3cnc(N)nc3-c3cc(F)ccc3O)ccc21 | 7.38

Task: Can you share its pIC50? I mean this compound: `CCN(CC)c1ccc(-c2cnc(N)nc2-c2ccccc2O)cc1`
Result: 7.02

Task: Can you share its pIC50? I mean this compound: `CCC1=C[C@@H]2CN(C1)Cc1c([nH]c3ccccc13)[C@@](C(=O)OC)(c1cc3c(cc1OC)N(C)[C@H]1[C@@](O)(C(=O)OC)[C@H](OC(C)=O)[C@]4(CC)C=CCN5CC[C@]31[C@@H]54)C2`
Result: 7.92
